Hey, just so you know, these numbers are from paper PMC8699473.

Let's look at some compounds and their measured Short-time stability (24h, 4°C, without daylight) Accuracy [%].
# Assay Explanation: Short-term stability in spiked pooled human plasma (bench-top, 4 °C, 56 °C)
# Experimental Parameters: validation standard 2xLLOV
Parameter Measured: Short-time stability (24h, 4°C, without daylight) Accuracy [%]

[
  {
    "Smiles Record": "CCCS(=O)(=O)Nc1ccc(F)c(C(=O)c2c[nH]c3ncc(-c4ccc(Cl)cc4)cc23)c1F",
    "Endpoint Value": "93.0%"
  },
  {
    "Smiles Record": "COc1cc2ncnc(Nc3ccc(F)c(Cl)c3)c2cc1OCCCN1CCOCC1",
    "Endpoint Value": "97.4%"
  },
  {
    "Smiles Record": "CCC1=C[C@@H]2CN(C1)Cc1c([nH]c3ccccc13)[C@@](C(=O)OC)(c1cc3c(cc1OC)N(C)[C@H]1[C@@](O)(C(=O)OC)[C@H](OC(C)=O)[C@]4(CC)C=CCN5CC[C@]31[C@@H]54)C2",
    "Endpoint Value": "88.7%"
  }
]

----------
# Assay Explanation: Long-term stability in spiked pooled human plasma
# Experimental Parameters: validation standard ULOV
Let's look at some molecules and their measured Long-term stability, 3 month, -80°C Accuracy [%].
Parameter Measured: Long-term stability, 3 month, -80°C Accuracy [%] (%)

[
  {
    "Molecule": "CNCc1ccc(-c2[nH]c3cc(F)cc4c3c2CCNC4=O)cc1 [Rucaparib]",
    "Endpoint Value": 98.3
  },
  {
    "Molecule": "CNC(=O)c1ccc(N2C(=S)N(c3cnc(C#N)c(C(F)(F)F)c3)C(=O)C23CCC3)cc1F [Apalutamide]",
    "Endpoint Value": 90.1
  },
  {
    "Molecule": "COC(=O)N[C@@H](C)CNc1nccc(-c2cn(C(C)C)nc2-c2cc(Cl)cc(NS(C)(=O)=O)c2F)n1 [Encorafenib]",
    "Endpoint Value": 99.0
  },
  {
    "Molecule": "CNC(=O)c1cc(Oc2ccc(NC(=O)Nc3ccc(Cl)c(C(F)(F)F)c3)c(F)c2)ccn1 [Regorafenib]",
    "Endpoint Value": 103.1
  },
  {
    "Molecule": "CC(=O)Nc1cccc(-n2c(=O)n(C3CC3)c(=O)c3c(Nc4ccc(I)cc4F)n(C)c(=O)c(C)c32)c1 [Trametinib]",
    "Endpoint Value": 106.9
  },
  {
    "Molecule": "CCc1cc2c(cc1N1CCC(N3CCOCC3)CC1)C(C)(C)c1[nH]c3cc(C#N)ccc3c1C2=O [Alectinib]",
    "Endpoint Value": 84.8
  },
  {
    "Molecule": "O=C(c1cc(Cc2n[nH]c(=O)c3ccccc23)ccc1F)N1CCN(C(=O)C2CC2)CC1 [Olaparib]",
    "Endpoint Value": 100.7
  },
  {
    "Molecule": "CS(=O)(=O)c1ccc(C(=O)Nc2ccc(Cl)c(-c3ccccn3)c2)c(Cl)c1 [Vismodegib]",
    "Endpoint Value": 93.4
  },
  {
    "Molecule": "C[C@H]1Oc2cc(cnc2N)-c2c(nn(C)c2C#N)CN(C)C(=O)c2ccc(F)cc21 [Lorlatinib]",
    "Endpoint Value": 89.2
  },
  {
    "Molecule": "Nc1cccc2c1C(=O)N(C1CCC(=O)NC1=O)C2=O (stereo not drawn) [Pomalidomide]",
    "Endpoint Value": 95.1
  },
  {
    "Molecule": "Cc1ccc(C(=O)Nc2ccc(CN3CCN(C)CC3)c(C(F)(F)F)c2)cc1C#Cc1cnc2cccnn12 [Ponatinib]",
    "Endpoint Value": 93.5
  },
  {
    "Molecule": "Cc1cn(-c2cc(NC(=O)c3ccc(C)c(Nc4nccc(-c5cccnc5)n4)c3)cc(C(F)(F)F)c2)cn1 [Nilotinib]",
    "Endpoint Value": 91.6
  },
  {
    "Molecule": "CCCS(=O)(=O)Nc1ccc(F)c(C(=O)c2c[nH]c3ncc(-c4ccc(Cl)cc4)cc23)c1F [Vemurafenib]",
    "Endpoint Value": 100.8
  },
  {
    "Molecule": "C=CC(=O)Nc1cc(Nc2nccc(-c3cn(C)c4ccccc34)n2)c(OC)cc1N(C)CCN(C)C [Osimertinib]",
    "Endpoint Value": 93.8
  },
  {
    "Molecule": "CCC1=C[C@@H]2CN(C1)Cc1c([nH]c3ccccc13)[C@@](C(=O)OC)(c1cc3c(cc1OC)N(C)[C@H]1[C@@](O)(C(=O)OC)[C@H](OC(C)=O)[C@]4(CC)C=CCN5CC[C@]31[C@@H]54)C2 [Vinorelbine]",
    "Endpoint Value": 98.1
  },
  {
    "Molecule": "CCN1CCN(Cc2ccc(Nc3ncc(F)c(-c4cc(F)c5nc(C)n(C(C)C)c5c4)n3)nc2)CC1 [Abemaciclib]",
    "Endpoint Value": 99.9
  },
  {
    "Molecule": "CC1(C)CCC(CN2CCN(c3ccc(C(=O)NS(=O)(=O)c4ccc(NCC5CCOCC5)c([N+](=O)[O-])c4)c(Oc4cnc5[nH]ccc5c4)c3)CC2)=C(c2ccc(Cl)cc2)C1 [Venetoclax]",
    "Endpoint Value": 102.2
  },
  {
    "Molecule": "CN(C)C(=O)c1cc2cnc(Nc3ccc(N4CCNCC4)cn3)nc2n1C1CCCC1 [Ribociclib]",
    "Endpoint Value": 92.7
  },
  {
    "Molecule": "O=c1[nH]c(=O)n([C@H]2C[C@H](O)[C@@H](CO)O2)cc1C(F)(F)F [Trifluridine]",
    "Endpoint Value": 79.9
  },
  {
    "Molecule": "O=C1CN2Cc3c(ccc(Cl)c3Cl)N=C2N1 [Anagrelide]",
    "Endpoint Value": 94.7
  },
  {
    "Molecule": "Cc1ccc(NC(=O)c2ccc(CN3CCN(C)CC3)cc2)cc1Nc1nccc(-c2cccnc2)n1 [Imatinib]",
    "Endpoint Value": 89.4
  },
  {
    "Molecule": "C[C@]12CC[C@H](O)CC1=CC[C@@H]1[C@@H]2CC[C@]2(C)C(c3cccnc3)=CC[C@@H]12 [Abiraterone]",
    "Endpoint Value": 100.6
  },
  {
    "Molecule": "CNC(=O)c1ccccc1Sc1ccc2c(/C=C/c3ccccn3)n[nH]c2c1 [Axitinib]",
    "Endpoint Value": 91.9
  },
  {
    "Molecule": "C[C@@H](Oc1cc(-c2cnn(C3CCNCC3)c2)cnc1N)c1c(Cl)ccc(F)c1Cl [Crizotinib]",
    "Endpoint Value": 89.7
  }
]
